- Assay protocol: Ocular tissue concentrations (aqueous humor, vitreous humor, iris, retina, choroid, cornea) after topical ocular, subcutaneous and intravitreal administration
- Type: in vivo, New Zealand White rabbits
- Assay context: New Zealand White, rabbit, aqueous humor, other: intravitreal, 2.5 mg per eye, Group 5 intravitreal 2.5 mg per eye; 72 hr; read-out: aqueous humor Average Conc.
Outcome measure: concentration at 72 hr

Prompt line: In one line, give reported concentration at 72 hr of the entry COC(=O)N[C@@H](Cc1ccccc1)C(=O)N[C@@H](Cc1ccc(NS(=O)(=O)O)cc1)c1csc(-c2cccs2)n1 [Compound 1 free acid] .
Response line: 120 ng/g

###

- Assay protocol: Ocular tissue concentrations (aqueous humor, vitreous humor, iris, retina, choroid, cornea) after topical ocular, subcutaneous and intravitreal administration
- Assay type: in vivo, New Zealand White rabbits
- Assay context: New Zealand White, rabbit, retina homogenate, subcutaneous, 5 mg/kg/dose, TABLE 16: Retina homogenate, 1 hr, OD; free acid, subcutaneous 5 mg/kg/dose, Group 3; read-out: Retina Conc. (ng/mL) OD
Outcome measure: concentration at 1 h
Answer format: number, then unit.

Prompt line: In one line, give reported concentration at 1 h of the entry COC(=O)N[C@@H](Cc1ccccc1)C(=O)N[C@@H](Cc1ccc(NS(=O)(=O)O)cc1)c1csc(-c2cccs2)n1 .
Response line: 0.942 ng/mL
